# system.name: T1, human CD38 expressed on the cell surface (human, UniProt P28907 1-300)
# T1 construct: whole, on cells; also called hCD38-expressing cells; huCD38
# measurement.description: flow cytometry on preB::300.19 cells, apparent KD
pKd: −log10 of the molar value.
measurement.label: pKd

* mAb3 (antibody, human IgG1, kappa, V domains shown, also called antiCD38_C2-CD38-1_VH3-VL3) VH: QVQLVQSGAEVVKPGASVKVSCKASGYTFTSFNMHWVKEAPGQRLEWIGYIYPGNGGTNYNQKFQGRATLTADTSASTAYMELSSLRSEDTAVYFCARTGGLRRAYFTYWGQGTLVTVSS VL: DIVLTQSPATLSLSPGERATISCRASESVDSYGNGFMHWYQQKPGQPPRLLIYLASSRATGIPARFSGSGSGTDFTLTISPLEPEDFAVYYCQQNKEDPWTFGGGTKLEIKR | 9.11
